Target: STING variants (HAQ) (Homo sapiens, UniProt Q86WV6, G230A/R293Q/R71H)
Construct: host or cells: HEK-Blue ISG KO-STING cells (Invivogen, hkb-kostg)
Sequence (Q86WV6 whole entry R71H/G230A/R293Q): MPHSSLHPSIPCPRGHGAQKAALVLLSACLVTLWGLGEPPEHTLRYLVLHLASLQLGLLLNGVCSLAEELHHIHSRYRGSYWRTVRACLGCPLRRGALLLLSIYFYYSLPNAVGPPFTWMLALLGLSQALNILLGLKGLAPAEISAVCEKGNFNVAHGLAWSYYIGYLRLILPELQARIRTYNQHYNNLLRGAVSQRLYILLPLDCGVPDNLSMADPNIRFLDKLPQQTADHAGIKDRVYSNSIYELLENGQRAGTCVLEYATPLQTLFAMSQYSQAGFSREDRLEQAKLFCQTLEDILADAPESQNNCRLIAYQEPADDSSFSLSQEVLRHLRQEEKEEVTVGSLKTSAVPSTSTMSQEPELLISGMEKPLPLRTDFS
Assay: SEAP reporter assay in HEK-Blue ISG KO-STING cells transfected with STING HAQ variant (Method 1)
Format: cell-based
Details: compound concentration 25 μM; 24 h
Value kind: Fold change related to DMSO control, HAQ (fold)

Recorded Fold change related to DMSO control, HAQ, per entry:
| Compound | Fold change related to DMSO control, HAQ, fold |
| --- | --- |
| CCn1nc(C)cc1C(=O)Nc1nc2cc(C(N)=O)cc3c2n1CC(C)(C)CO3 [Example 27] | 56.43 |
| CCn1nc(C)cc1C(=O)Nc1nc2cc(C(N)=O)cc3c2n1[C@@H](C)CCO3 [Example 22] | 95.64 |
| CCn1nc(C)cc1C(=O)Nc1nc2cc(C(N)=O)cc3c2n1[C@@H](CCNC(=O)/C=C/c1ccccc1OC)CO3 [Example 39] | 25.85 |

[1] CC[C@H]1COc2cc(C(N)=O)cc3nc(NC(=O)c4cc(C)nn4CC)n1c23 [Example 26]
[2] CCn1nc(C)cc1C(=O)Nc1nc2cc(C(N)=O)cc3c2n1[C@@H](CCCNC(=O)OCc1cccnc1)CO3 [Example 32]
[3] CCn1nc(C)cc1C(=O)Nc1nc2cc(C(N)=O)cc3c2n1[C@@H](COCc1ccccc1)CO3 [Example 30]
[4] CCn1nc(C)cc1C(=O)Nc1nc2cc(C(N)=O)cc3c2n1C(C)(C)CO3 [Example 21]
[5] CCn1nc(C)cc1C(=O)Nc1nc2cc(C(N)=O)cc3c2n1[C@@H](CCNC(=O)/C=C/c1cccc(F)c1)CO3 [Example 38]
Asked: Please list the entries, largest Fold change related to DMSO control, HAQ first. // rank by listing labels in the order requested
Given back: 1, 3, 5, 4, 2

[a] CCn1nc(C)cc1C(=O)Nc1nc2cc(C(N)=O)cc3c2n1[C@@H](Cc1ccccc1)CO3 [Example 24]
[b] CCn1nc(C)cc1C(=O)Nc1nc2cc(C(N)=O)cc3c2n1[C@@H](CCCNC(=O)COc1ccccc1)CO3 [Example 33]
Asked: I'm curious whether a or b has the smaller Fold change related to DMSO control, HAQ number. Which is it? Please identify the chosen entry by its label.
Given back: b
(b: 20.81 fold, a: 65.85 fold)

###

Target: STING variants (HAQ) (Homo sapiens, UniProt Q86WV6, G230A/R293Q/R71H)
Construct: host or cells: HEK-Blue ISG KO-STING cells (Invivogen, hkb-kostg)
Assay: SEAP reporter assay in HEK-Blue ISG KO-STING cells transfected with STING HAQ variant (Method 1)
Format: cell-based
Conditions: compound concentration 25 μM; 24 h
Value kind: Fold change related to DMSO control, HAQ (fold)

Recorded Fold change related to DMSO control, HAQ, per entry:
| Molecule | Scale unit | Fold change related to DMSO control, HAQ |
| --- | --- | --- |
| CCn1nc(C)cc1C(=O)Nc1nc2cc(C(N)=O)cc3c2n1[C@@H](CCCNC(=O)/C=C/c1ccccc1)CO3 [Example 31] | fold | 22.11 |
| CCn1nc(C)cc1C(=O)Nc1nc2cc(C(N)=O)cc3c2n1[C@@H](C(C)C)CO3 [Example 25] | fold | 56.18 |
| CCC[C@H]1COc2cc(C(N)=O)cc3nc(NC(=O)c4cc(C)nn4CC)n1c23 [Example 23] | fold | 81.27 |
| CCn1nc(C)cc1C(=O)Nc1nc2cc(C(N)=O)cc3c2n1CC1(CC1)O3 [Example 28] | fold | 38.16 |
| CCn1nc(C)cc1C(=O)Nc1nc2cc(C(N)=O)cc3c2n1[C@@H](CCNC(=O)OCc1ccccc1)CO3 [Example 14] | fold | 27.44 |

[A] CCn1nc(C)cc1C(=O)Nc1nc2cc(C(N)=O)cc3c2n1[C@@H](CCCCNC(=O)OCc1ccccc1)CO3 [Example 17]
[B] CCn1nc(C)cc1C(=O)Nc1nc2cc(C(N)=O)cc3c2n1C(C)(CN(C)CCc1ccccc1)CO3 (stereo not shown) [Example 29]
Asked: Name the one with the greater Fold change related to DMSO control, HAQ value, either A or B as given. Please identify the chosen entry by its label.
Given back: A

###

Biological target: STING (Homo sapiens, UniProt Q86WV6, G230A/H232R/R293Q/R71H)
Construct: THP1 was purchased from National Collection of Authenticated Cell Cultures (Cat #TCHu 57); host or cells: THP1
Sequence (Q86WV6 whole entry R71H/G230A/H232R/R293Q): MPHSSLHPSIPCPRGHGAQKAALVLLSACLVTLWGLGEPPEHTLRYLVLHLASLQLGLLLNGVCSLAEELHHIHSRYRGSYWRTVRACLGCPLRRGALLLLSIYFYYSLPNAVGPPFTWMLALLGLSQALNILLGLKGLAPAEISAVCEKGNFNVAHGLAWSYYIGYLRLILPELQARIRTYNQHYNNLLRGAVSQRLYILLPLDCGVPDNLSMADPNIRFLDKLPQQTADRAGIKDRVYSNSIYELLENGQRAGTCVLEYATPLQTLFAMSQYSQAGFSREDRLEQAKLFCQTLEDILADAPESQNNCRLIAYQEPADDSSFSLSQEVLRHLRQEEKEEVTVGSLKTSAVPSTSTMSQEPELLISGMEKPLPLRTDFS
Experiment: IFNβ release from THP1 by STING activation (hIFNβ ELISA)
Assay type: cell-based
Conditions: THP1 cells, 24 h, IFN-β in supernatant; inactive = IFNβ not detected at the maximum concentration of compounds
pEC50: −log10 of the molar value.
Value kind: pEC50

[1] CC[C@H]1COc2cc(C(N)=O)cc3nc(NC(=O)c4cc(C)nn4CC)n1c23
[2] CCn1nc(C)cc1C(=O)Nc1nc2cc(C(N)=O)cc3c2n1CC(C)(C)CN3C
Asked: I'm curious whether 1 or 2 has the smaller pEC50 number. Which is it? Please identify the chosen entry by its label.
Given back: 1
(1: 4.94, 2: 5.33)

[a] CCn1nc(C)cc1C(=O)Nc1nc2cc(C(N)=O)cc3c2n1CCCN3C
[b] CCN1CC(C)(C)Cn2c(NC(=O)c3cc(C)nn3CC)nc3cc(C(N)=O)cc1c32
Asked: Name the one with the greater pEC50 value, either a or b as given. Please identify the chosen entry by its label.
Given back: b

###

Target: STING (Homo sapiens, UniProt Q86WV6, G230A/H232R/R293Q/R71H)
Construct: THP1 was purchased from National Collection of Authenticated Cell Cultures (Cat #TCHu 57); host or cells: THP1
Test: IFNβ release from THP1 by STING activation (hIFNβ ELISA)
Type: cell-based
Settings: THP1 cells, 24 h, IFN-β in supernatant; inactive = IFNβ not detected at the maximum concentration of compounds
Value kind: hIFNβ ELISA (EC50, μM)

Recorded hIFNβ ELISA (EC50, μM), per entry:
| Compound | Value kind | Value observed |
| --- | --- | --- |
| CCn1nc(C)cc1C(=O)Nc1nc2cc(C(N)=O)cc3c2n1[C@@H](CCCCNC(=O)OCc1cccnc1)CO3 [Example 18] | hIFNβ ELISA (EC50, μM) | inactive |
| CCn1nc(C)c(Cl)c1C(=O)Nc1nc2cc(C(N)=O)cc3c2n1[C@@H](C(C)C)CO3 [Example 55] | hIFNβ ELISA (EC50, μM) | inactive |
| CCn1nc(C)c(Cl)c1C(=O)Nc1nc2cc(C(N)=O)cc3c2n1CC(C)(C)CO3 [Example 45] | hIFNβ ELISA (EC50, μM) | inactive |
| CCn1nc(C)cc1C(=O)Nc1nc2cc(C(N)=O)cc3c2n1[C@@H](CCCNC(=O)OCc1ccccc1)CO3 [Example 1] | hIFNβ ELISA (EC50, μM) | inactive |
| CCn1nc(C)cc1C(=O)Nc1nc2cc(C(N)=O)cc3c2n1CCO3 [Example 11] | hIFNβ ELISA (EC50, μM) | inactive |
| CCn1nc(C)cc1C(=O)Nc1nc2cc(C(N)=O)cc3c2n1CC1(CC1)O3 [Example 28] | hIFNβ ELISA (EC50, μM) | inactive |

Asked: State the recorded hIFNβ ELISA (EC50, μM) for this entry: CCC[C@H]1COc2cc(C(N)=O)cc3nc(NC(=O)c4cc(C)nn4CC)n1c23 [Example 23]
Given back: inactive

Asked: State the recorded hIFNβ ELISA (EC50, μM) for this entry: CCn1nc(C)cc1C(=O)Nc1nc2cc(C(N)=O)cc3c2n1[C@@H](CCNC(=O)/C=C/c1ccccc1)CO3 [Example 15]
Given back: inactive

###

Target: STING (Homo sapiens, UniProt Q86WV6, G230A/H232R/R293Q/R71H)
Construct: THP1 was purchased from National Collection of Authenticated Cell Cultures (Cat #TCHu 57)
Experiment: IFNβ release from THP1 by STING activation (hIFNβ ELISA)
Settings: THP1 cells, 24 h, IFN-β in supernatant; inactive = IFNβ not detected at the maximum concentration of compounds
Value kind: EC50

Recorded EC50, per entry:
| Smiles str | EC50 |
| --- | --- |
| CC[C@H]1COc2cc(C(N)=O)cc3nc(NC(=O)c4c(Br)c(C)nn4CC)n1c23 | > 2.5 µM |
| CCn1nc(C)cc1C(=O)Nc1nc2cc(C(N)=O)cc3c2n1[C@@H](C(C)C)CO3 | > 16.7 µM |
| CCn1nc(C)c(F)c1C(=O)Nc1nc2cc(C(N)=O)cc3c2n1CC1(CCC1)CO3 | 19 µM |

Asked: State the recorded EC50 for this entry: CCn1nc(C)cc1C(=O)Nc1nc2cc(C(N)=O)cc3c2n1[C@@H](CO)CO3
Given back: > 50 µM
